Numbers sourced from patent US9403866B2.

- measurement_description: Plasma levels and bioavailability in mice
- Type: in vivo, male C57BL/6 mice
- condition_info: male, C57BL/6, mouse, PO, 5 mg/kg, 2% EtOH/98% water, read-out: Bioavailability % F
property: bioavailability (%)
Reply with just the number (in %).

stdin: Return bioavailability for the following molecule: CC(C)C(N)C(=O)OC1CC2C3(C)CC(O)C(C4(C)CCC(C(C)(C)O)O4)C3(C)CCC23CC32CCC(O)C(C)(C)C12 (stereo not shown) [Compound 12]
stdout: 8

====

- measurement_description: Plasma levels and bioavailability in mice
- Format: in vivo, male C57BL/6 mice
- condition_info: male, C57BL/6, mouse, PO, 10 mg/kg, 2% EtOH/98% water, read-out: Bioavailability % F
Recorded measurements of bioavailability, one per entry
Expressed in %, but write only the number.

molecule	recorded_value
CC(C)C(N)C(=O)OC1CC2C3(C)CC(O)C(C4(C)CCC(C(C)(C)O)O4)C3(C)CCC23CC32CCC(OC(=O)C(N)C(C)C)C(C)(C)C12 (centres unmarked) [Compound 7]	25

API: the following record is the query input.
stdin: Provide only the value of recorded bioavailability for CC(C)C(N)C(=O)OC1CCC23CC24CCC2(C)C(C5(C)CCC(C(C)(C)O)O5)C(O)CC2(C)C4CC(O)C3C1(C)C (centres unmarked) [Compound 4]
stdout: 48
